For each entry below, report its Decrease in blood pressure value.
# Test system: Rattus norvegicus
# PROTOCOL_SUMMARY: Systolic blood pressure was measured at intervals from 1 to 6 hr in groups of six rats after oral administration of a dose of 1 mg/kg
# Type: functional
Give bare numbers, in %.

Example entries begin here.
-- ask Given the molecule CC1(C)Oc2ccc(C#N)cc2C(NC(N)=O)[C@@H]1O (stereo partly specified) , what is its reported Decrease in blood pressure?
-- reply 18

-- ask Given the molecule CCCCNC(=O)NC1c2cc(C#N)ccc2OC(C)(C)[C@H]1O (stereo partly specified) , what is its reported Decrease in blood pressure?
-- reply 11

For each of the molecules below, state Decrease in blood pressure.
1. CC(N/C(=N\C#N)Nc1ccncc1)C(C)(C)C (stereo unspecified) [PINACIDIL ANHYDROUS]
2. CC1(C)Oc2ccc(C#N)cc2C(NC=O)[C@@H]1O (stereo partly specified)

-- reply
[11, 10]
